tested on: EKVX NSCLC; assay: NCI tumour cell line growth inhibition, 48 h
Would you kindly list TGI for each of these compounds?

Would you please look over these solved cases?
COc1ccc(C2NC(N)=C(C#N)C3=C2C(C)CCC3)cc1OC (stereo not drawn) :: > 100 µM
CC1=NN2CCC(=O)N=C2S1 :: > 100 µM
OC(CCl)CN1CC[N+]2(CC1)CC[N+]1(CCN(CC(O)CCl)CC1)CC2 (stereo not drawn) :: > 50 µM
NS(=O)(=O)c1ccc(NCc2nc3ccccc3[nH]2)cc1 :: > 100 µM

For every record below, what is its TGI?
1. O=C(NNc1nc(-c2ccccc2)cs1)Nc1ccccc1
2. COC1CC(n2cc(F)c(N)nc2=O)OC1CO (stereo not drawn)
3. CCCC(=O)OC(OC(=O)CCC)c1ccc([N+](=O)[O-])o1
4. CCOC(=O)N(O)c1ccc(/C=C/c2ccccc2)cc1

Reply:
["> 100 µM", "> 100 µM", "99.6 µM", "63.6 µM"]
